System: Saccharomyces cerevisiae
Assay: protein stability index of tFT-peptide fusion (C-terminal peptide) (PSI (0-1 scale)); higher = more stable (slower turnover)
Conditions: genetic background: wild type; temperature: 30 C
Let's look at some sequences and their measured protein stability index.
Number, no unit, nothing else.

PTTPPTILLLPL ... 0.658
QKIREKKKRKKL ... 0.622
CNGVGRLPGTPG ... 0.685
PAVISLLPVWFT ... 0.691
EVKKTFCFSKDI ... 0.672
RVVDAPPSGCRS ... 0.688

Could you share which protein stability index value was measured for `PLSLPLSLLCPP` ?
0.698

Could you share which protein stability index value was measured for `LLSHLPLPSSPP` ?
0.737

Could you share which protein stability index value was measured for `TFQMAYHSRTAV` ?
0.637

Could you share which protein stability index value was measured for `SSSCRGGVSVLV` ?
0.679

Could you share which protein stability index value was measured for `HRDPRFSRCSTC` ?
0.69

Could you share which protein stability index value was measured for `GGRGAGGGVELR` ?
0.661

Could you share which protein stability index value was measured for `SLVIVLPALIFL` ?
0.467

Could you share which protein stability index value was measured for `IFHLFPFDNPYD` ?
0.8

Could you share which protein stability index value was measured for `PPPPPPPHSPPS` ?
0.664

Could you share which protein stability index value was measured for `GSFPRLPPSKSF` ?
0.724

Could you share which protein stability index value was measured for `PRRSNPQPTHIR` ?
0.708

Could you share which protein stability index value was measured for `FLPPPPTPSPPY` ?
0.723

Could you share which protein stability index value was measured for `ACCPPRLAPPPL` ?
0.675

Could you share which protein stability index value was measured for `FYTYILTVAEAL` ?
0.482

---

System: Saccharomyces cerevisiae
Assay: protein stability index of tFT-peptide fusion (C-terminal peptide) (PSI (0-1 scale)); higher = more stable (slower turnover)
Conditions: genetic background: wild type; temperature: 30 C
# protein stability index >= 0.7 gives Y, anything below gives N

Would you please look over these solved cases?
EFLGTVRSVWRK ... N
PFPPRRPSATTL ... Y
SRLRVVRCVSWV ... N
PFAYFSRFLYFP ... N
SVGGVGVEIQSV ... N

# check: protein stability index of `GDVRLWMRGIER` is greater than or equal to 0.7
Y

# check: protein stability index of `DKRHQSALSFFI` is greater than or equal to 0.7
Y

# check: protein stability index of `KTKGPKSKPKRK` is greater than or equal to 0.7
N

# check: protein stability index of `ALAYSLQRSPRV` is greater than or equal to 0.7
N

# check: protein stability index of `VGTAVVDRHGVR` is greater than or equal to 0.7
N

---

Let's look at some sequences and their measured protein stability index.
Test system: Saccharomyces cerevisiae
Assay: protein stability index of tFT-peptide fusion (C-terminal peptide) (PSI (0-1 scale)); higher = more stable (slower turnover)
Details: genetic background: wild type; temperature: 37 C
Number, no unit, nothing else.

Some sequences with recorded protein stability index:
VVRVIWCQFSCF ... 0.434
WPPPPPSLLLLC ... 0.177
FLLSFFGLVFFW ... 0.449
FVLFSIFHFFLW ... 0.47
CRLLYYIPCGLF ... 0.597
WRAFVFYHHFLD ... 0.586
VFFCVLRVFFSA ... 0.195
LFRFVFLLFGFW ... 0.526
WNSQGVFILAKC ... 0.561
YVFSPWSCWASV ... 0.351

Could you share which protein stability index value was measured for `VYLVLRCGSVLV` ?
0.586

Could you share which protein stability index value was measured for `GHYQGVCHRRIC` ?
0.368

Could you share which protein stability index value was measured for `FLIFFVCLFRWK` ?
0.301

Could you share which protein stability index value was measured for `IILGVRQIEVNS` ?
0.52

Could you share which protein stability index value was measured for `LCFLVALASMLF` ?
0.525

Could you share which protein stability index value was measured for `VGVLWALIVGVR` ?
0.289

Could you share which protein stability index value was measured for `TCVTLRYRLTFE` ?
0.621

Could you share which protein stability index value was measured for `CLVKIVIFFLFS` ?
0.34

Could you share which protein stability index value was measured for `RPPHPPPATFLS` ?
0.487

---

Tested on: Saccharomyces cerevisiae
Test: protein stability index of tFT-peptide fusion (C-terminal peptide) (PSI (0-1 scale)); higher = more stable (slower turnover)
Details: genetic background: das1 deletion; temperature: 30 C
RESULT_TYPE: protein stability index
Number, no unit, nothing else.

Some sequences with recorded protein stability index:
WILPASFCVVFL ... 0.385
WWVVVRGGWCLC ... 0.286
AFRRFLLYCRFI ... 0.503
PAPQAVRIFSLY ... 0.653
GGGWAVLLWVQV ... 0.339
FPFHSRPCLPVL ... 0.475
AFAFLLHRFLLV ... 0.477
MSHVCICRRLML ... 0.609
LAISTIQMFKRI ... 0.624
VFFMFVFFPFPG ... 0.404

Could you share which protein stability index value was measured for `SIPVWTIELFAT` ?
0.428

Could you share which protein stability index value was measured for `IFFSLFFFFLCN` ?
0.356

Could you share which protein stability index value was measured for `EGALSGGGKTSG` ?
0.634

Could you share which protein stability index value was measured for `YTPPISRLLIFT` ?
0.39

Could you share which protein stability index value was measured for `VFVFTFSLSFYC` ?
0.25

---

Tested on: Saccharomyces cerevisiae
Assay: protein stability index of tFT-peptide fusion in wild type (PSI (0-1 scale)); higher = more stable (slower turnover)
Conditions: genetic background: wild type
RESULT_TYPE: protein stability index
Number, no unit, nothing else.

Some sequences with recorded protein stability index:
LKILRQKMCHQN ... 0.217
RVTRLDAIYFRIH ... 0.087
RLIQPLPVQFIN ... 0.0372
CLVSLPFLLFFR ... 0.0627

Could you share which protein stability index value was measured for `FSMRWTFRYQVN` ?
0.0962

Could you share which protein stability index value was measured for `RLRQPLPVQFLN` ?
0.0588

Could you share which protein stability index value was measured for `HTSCGYKFRTNN` ?
0.215

Could you share which protein stability index value was measured for `RVTRLDAIGFRI` ?
0.69

Could you share which protein stability index value was measured for `PSLEASFWRVVG` ?
0.121

Could you share which protein stability index value was measured for `AITLPMCLLLLR` ?
0.116

---

System: Saccharomyces cerevisiae
Assay: protein stability index of tFT-peptide fusion (C-terminal peptide) (PSI (0-1 scale)); higher = more stable (slower turnover)
Conditions: genetic background: wild type; temperature: 30 C
RESULT_TYPE: protein stability index
Number, no unit, nothing else.

IKSIKQNKIKTI ... 0.292
VVLGESSGGVGV ... 0.643
LPNPTSPSPQAA ... 0.693

Could you share which protein stability index value was measured for `ASPLRLFIPFLF` ?
0.312

Could you share which protein stability index value was measured for `YSRPAPSAPPHL` ?
0.698

Could you share which protein stability index value was measured for `FISYFRFDRFGS` ?
0.699

Could you share which protein stability index value was measured for `SLWVLPGPVVLG` ?
0.621

---

Test system: Saccharomyces cerevisiae
Test: protein stability index of tFT-peptide fusion (C-terminal peptide) (PSI (0-1 scale)); higher = more stable (slower turnover)
Settings: genetic background: cdc34-1; temperature: 37 C
Label scheme, based on protein stability index: band 1: < 0.3; band 2: ≥ 0.3 and < 0.6; band 3: ≥ 0.6

LAISTIQMFKRI ... band 3
FVGVVCILWLVG ... band 1
GWFCLFFVVSTG ... band 1
AWLWCVCWSIMR ... band 2
CVYGILLLVDVR ... band 1

Kindly identify the class of `VFFCVLRVFFSA` .
band 1

Kindly identify the class of `YVLWFVCGVGFV` .
band 2

Kindly identify the class of `VDFCLLFLLLLV` .
band 2

Kindly identify the class of `VCFLCIWLYSED` .
band 1

Kindly identify the class of `FVLSLGQLVFIF` .
band 2

Kindly identify the class of `SIFFLVPLVFLS` .
band 2

Kindly identify the class of `VSGVLRSMVRLQ` .
band 3

Kindly identify the class of `FVLFSIFHFFLW` .
band 2

Kindly identify the class of `LFLVVVVRAGGF` .
band 1

Kindly identify the class of `GSGCLFNRWRIL` .
band 3

Kindly identify the class of `RWRDGVAWVVVC` .
band 1

Kindly identify the class of `SRCLALVICYRV` .
band 2

Kindly identify the class of `LFRNIFLFVFLI` .
band 1

Kindly identify the class of `GHYQGVCHRRIC` .
band 3

---

System: Saccharomyces cerevisiae
Experiment: protein stability index of tFT-peptide fusion (C-terminal peptide) (PSI (0-1 scale)); higher = more stable (slower turnover)
Details: genetic background: wild type; temperature: 30 C
# protein stability index >= 0.7 gives y, anything below gives n

Would you please look over these solved cases?
EGGTGNHSVSNQ ... n
GARGRAYDRTSQ ... n
GGGVEAIEVSQG ... n

# check: protein stability index of `DALVQVFANVGA` is greater than or equal to 0.7
n

# check: protein stability index of `QGQAAHEHFHGR` is greater than or equal to 0.7
n
